- Measurement Description: Solubility at pH 7.4
- Assay type: physicochemical
- Condition Context: buffer
Recorded solubility for the following molecules
Property Name: solubility (µM)

>>> observed_measurement("NCCCC[C@H](NC(=O)OCc1ccccc1)C(=O)c1noc(Cc2ccc(C(=O)NCCOc3ccc(F)cc3)cc2)n1")
299
>>> observed_measurement("NCCCC[C@H](NC(=O)OCc1ccccc1)C(=O)c1noc(CN2CCN(CCCc3ccccc3)CC2)n1")
329
>>> observed_measurement("NCCCC[C@H](NC(=O)OCc1ccccc1)C(=O)c1noc(Cc2ccc(C(=O)NCc3cccc4ccccc34)cc2)n1")
77.2
>>> observed_measurement("NCCCC[C@H](NC(=O)OCc1ccccc1)C(=O)c1noc(Cc2ccc(C(=O)NCCc3ccccc3)cc2)n1")
440
>>> observed_measurement("NCCCC[C@H](NC(=O)c1ccc(F)c(F)c1)C(=O)c1noc(Cc2ccc(C(=O)NCCc3cccc(Cl)c3)cc2)n1")
349
>>> observed_measurement("NCCCC[C@H](NC(=O)OCc1ccccc1)C(=O)c1noc(Cc2ccc(OCCc3ccccc3)cc2)n1")
23
>>> observed_measurement("NCCCC[C@H](NC(=O)c1cc(F)cc(F)c1)C(=O)c1noc(Cc2ccc(C(=O)NCCc3cccc(Cl)c3)cc2)n1")
313
>>> observed_measurement("CC(C)(C)C(=O)N[C@@H](CCCCN)C(=O)c1noc(Cc2ccc(C(=O)NCCc3cccc(Cl)c3)cc2)n1")
30
>>> observed_measurement("NCCCC[C@H](NC(=O)OCc1ccccc1)C(=O)c1noc(Cc2ccc(C(=O)NCc3ccc4ccccc4c3)cc2)n1")
100
>>> observed_measurement("NCCCC[C@H](NC(=O)c1ccc2c(c1)OCO2)C(=O)c1noc(Cc2ccc(C(=O)NCCc3cccc(Cl)c3)cc2)n1")
337
>>> observed_measurement("NCCCC[C@H](NC(=O)OCc1ccccc1)C(=O)c1noc(Cc2ccc(C(=O)NC3Cc4ccccc4C3)cc2)n1")
206
>>> observed_measurement("NCCCC[C@H](NC(=O)OCc1ccccc1)C(=O)c1noc(Cc2ccc(C(=O)NCCc3cccc(Cl)c3)cc2)n1")
109
>>> observed_measurement("NCCCC[C@H](NC(=O)OCc1ccccc1)C(=O)c1noc(CN2CCN(CCCCc3ccccc3)CC2)n1")
466

----------
- Tested System: Tryptase beta-1 (Homo sapiens)
- Sequence (Q15661 whole entry): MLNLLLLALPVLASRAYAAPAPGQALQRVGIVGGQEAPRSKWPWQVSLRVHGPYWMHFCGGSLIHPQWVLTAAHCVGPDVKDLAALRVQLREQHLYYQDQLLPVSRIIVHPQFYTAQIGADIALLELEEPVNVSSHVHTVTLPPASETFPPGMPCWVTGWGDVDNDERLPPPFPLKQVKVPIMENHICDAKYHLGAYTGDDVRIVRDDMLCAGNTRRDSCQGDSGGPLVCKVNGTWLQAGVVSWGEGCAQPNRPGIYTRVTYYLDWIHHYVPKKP
- Measurement Description: Inhibition of human beta tryptase
pKi: −log10 of the molar value.
Recorded pKi for the following compounds
Property Name: pKi

>>> observed_measurement("NCCCC[C@H](NC(=O)OCc1ccccc1)C(=O)c1noc(Cc2ccc(C(=O)NCCOc3ccc(F)cc3)cc2)n1")
8.54
>>> observed_measurement("NCCCC[C@H](NC(=O)OCc1ccccc1)C(=O)c1noc(Cc2ccc(C(=O)NC3Cc4ccccc4C3)cc2)n1")
8.43
>>> observed_measurement("NCCCC[C@H](NC(=O)OCc1ccccc1)C(=O)c1noc(CN2CCN(C(=O)CCCc3ccccc3)CC2)n1")
7.47
>>> observed_measurement("NCCCC[C@H](NC(=O)c1cccc(F)c1)C(=O)c1noc(Cc2ccc(C(=O)NCCc3cccc(Cl)c3)cc2)n1")
8.77
>>> observed_measurement("NCCCC[C@H](NC(=O)OCc1ccccc1)C(=O)c1noc(CN2CCN(C(=O)OCc3ccccc3)CC2)n1")
6.33
>>> observed_measurement("NCCCC[C@H](NC(=O)OCc1ccccc1)C(=O)c1noc(Cc2ccc(C(=O)NCCc3cccc(Cl)c3)cc2)n1")
8.74
>>> observed_measurement("NCCCC[C@H](NC(=O)OCc1ccccc1)C(=O)c1noc(CN2CCN(CCCCc3ccccc3)CC2)n1")
8.24
>>> observed_measurement("COc1ccc(Cc2nc(C(=O)[C@H](CCCCN)NC(=O)OCc3ccccc3)no2)cc1")
6.11
